Entry source: the supplement of paper PMC12042874

# Experiment summary: amyloid nucleation score (Sup35N fusion, yeast selection) (log enrichment); library NNK1; higher = more nucleation; inactive = no reads after selection;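 also: zero at mode of non-aggregating sequences after 7 days selection at 30°C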
Recorded amyloid nucleation score for the following substances

| Substance | amyloid nucleation score |
| --- | --- |
| PCFRTYDCAISNLAVASRCR | 1.03 |
| ASLTFFS | 0.283 |
| DTNTSIMHTIPRVGLNGCRR | 10 |
| PIHDLRKLIYVTPEFYWGFY | 0.561 |
| HWTTHESRKMVGQRFQPVGG | 0.078 |
| SRYLDIEVLSHGMNWMTFQT | -0.005 |
| VTYTISRELSFCPPITFGTL | 0.777 |
| RSSMYKYV | 0.523 |
| YMRRVLPRCHPIWNGFPFAR | 0.254 |
| VYPWPVERSNFPTSALSYTK | -0.843 |
| KPTLGVILTTTTFTRSCLYY | -0.252 |
| YWRNKGVVCGLCYDIVR | -0.019 |
| SLDCLLYTLVDCRAFSFYKN | -0.359 |
| IKLTPLMLRTTELV | -1.32 |
| WITYHEFWRLTKGCLSFTDL | 0.023 |
| IHMLIVLSF | -0.103 |
| FVMFLPIYEF | -0.35 |
| YFYFLVNISFISIKGCLFMP | 0.121 |
| CMSRSYYYTSPKDPKEFNC | 0.56 |
| YSVQIMSKNITWVKVCPASK | 5.19 |
| LASTVSDWN | 0.32 |
| DPQTGDGVLAMNKWEPYRGL | 0.697 |
| RRYCKLLVWRQLTSYHGRQA | 0.527 |
| RCVKASLYDGEYMKLMDGVM | -0.407 |
| IIGRLNLKMISGLI | 2.15 |
| VSYKCSVRFLCIGRLRGVLF | -0.197 |
| AQQLLIGDDDLDTAVEFDDM | -0.509 |
| FNKYYMFEST | -0.038 |
| RGGMIPGYTPAMYHWMLFKS | 0.185 |
| LNSYVRG | 0.201 |
| GYKMAYNFCDEKEGLNWRVG | -0.257 |
| GFDFMWGGGFRNSRNRFQLS | 0.428 |
| SLKFRLYSPNAMALNPKALF | 0.581 |

###

List of amyloid nucleation score values.
# Experiment summary: amyloid nucleation score (Sup35N fusion, yeast selection) (log enrichment); library NNK2; higher = more nucleation; inactive = no reads after selection
Value kind: amyloid nucleation score

| Substance | Assay value |
| --- | --- |
| SYFGDFERFSFSCDHER | -0.471 |
| CTFHFVSGHTTTGSR | 1 |
| MGFLLRLCTYRCVVVIWGSI | -1.08 |
| LVFKAPRTITSPCCYGSNWS | 0.504 |
| GNLLKREFAIVFFSVYKQEA | -0.27 |
| RFLLVRSCQAISNRGNGLRE | 5.08 |
| TVYNDNFVCRILNLDITILF | 6.96 |
| IKIIPPLKLLCVLGWHSRGA | 1.35 |
| DCFTRYGCAGKYRVGAQGSS | 1.47 |
| SFNWNC | -1.15 |
| VLDSAYCAFVYFFIVVIWWF | -0.595 |
| AWANRMWWAR | 4.23 |
| LYFDVTQ | -0.611 |
| PWHDEVVVSNQVYTYMGPSS | 0.074 |
| GCVPVRYIARSAWNNPDLPN | 0.829 |
| VTGTYFLVLITCA | 4.27 |

###

Reported values of amyloid nucleation score for individual entries
# Experiment summary: amyloid nucleation score (Sup35N fusion, yeast selection) (log enrichment); library NNK2; higher = more nucleation; inactive = no reads after selection

| Substance | amyloid nucleation score |
| --- | --- |
| HRLVLDIGDQIWSKA | 0.35 |
| IRSGIIPVTVGPYHGALYMV | 0.662 |
| LFIEGNVSWGYACLHIRSVG | 0.039 |
| KSAYIGASNHAEIRHQSLSS | 0.253 |
| TMCMPAHMPYQHVSYLDILT | -0.161 |
| VWGLLTIPCVSQIRCRCGFS | 0.749 |
| EARILIKLLI | 2.58 |
| YRQRFVRKARSFYLWVMALP | -0.409 |
| SDFMTKYHHL | 3.33 |
| FHPVFGMFWRTSNERSGLFQ | -1.03 |
| ITDVFSDAACNRWQINYTQA | -0.832 |
| MMWLGFYSCKGIGW | 3.99 |
| SGNSENSTLVKNYFSTLSLS | -0.124 |
| GPITWTNSSGCRIPMPSFSE | 1.42 |
| ATLGTVRCYRKRAIFFEGHL | 1.17 |

###

Parameter: amyloid nucleation score. Scope: all listed entries.
# Experiment summary: amyloid nucleation score (Sup35N fusion, yeast selection) (log enrichment); library NNK1; higher = more nucleation; inactive = no reads after selection

| Substance | amyloid nucleation score |
| --- | --- |
| HRRRYAVNFSVEIMIRALG | -1 |
| LVNVGGQEIKVMR | 0.888 |
| GWSSFWGPLVCARVWRRIGE | 0.433 |
| NCRFRVVVRKSGTLLPVWVP | 0.542 |
| RYSSVKLEMKSQVVIELTLI | 1.09 |
| PNLPGSKDNLTDRF | 0.488 |
| FVHDLWLGYGVNFLIAVMCS | 0.209 |
| YGTNRSWGDMEKISSHKRCW | -0.321 |
| TNFDGYLFRFHIWRGCLVT | 0.188 |
| NNVNEVWWA | 0.249 |
| HSEIHVALYCASVML | 3.38 |
| ENHSECNWRKCQQTLISHEC | 0.487 |
| WAFIHSCRYKLTCGGYFYAR | -0.236 |
| IKSGPPGRRQLFN | -0.741 |
| SCLAIRTSYCNEELSIESMQ | -0.8 |

###

# Experiment summary: amyloid nucleation score (Sup35N fusion, yeast selection) (log enrichment); library NNK1; higher = more nucleation; inactive = no reads after selection
Each record gets a class by amyloid nucleation score: class A: < -0.07; class B: ≥ -0.07 and < 0.3; class C: ≥ 0.3

| Substance | Group label |
| --- | --- |
| CYCSEWNWRCNTELDVLFQS | class C |
| ITVGEYVNHCSG | class B |
| IIQCNVTYAS | class C |
| MEMLGGNRL | class C |
| RPQYLCAAVHEVQRFGHNR | class A |
| CVDRRV | class B |
| LKAGFM | class A |
| GGAHSY | class B |
| VLLFVRLILWTEGRYNCIMG | class A |
| YHILGCKIVNVIDTALGPWL | class C |
| SGRPLEYTDNGEQDRMWWQS | class B |
| LTEYFSSVVEYDGYPVLSE | class A |
| EHKWAANLDDMVHLDRHNMQ | class C |
| LNGPTVTKECRGAYMVMPGT | class A |
| RINVSGWQLQATLSFLLAFS | class B |

###

# Experiment summary: amyloid nucleation score (Sup35N fusion, yeast selection) (log enrichment); library NNK2; higher = more nucleation; inactive = no reads after selection
Binary call on amyloid nucleation score: MET from -0.1 upward, NOT MET beneath that.

| Substance | Group label |
| --- | --- |
| CKKLMLILEFWMCMLSLNIA | MET |
| GRNLFSFVFQMLV | MET |
| FCLALWWHYKFVLWFRNN | NOT MET |
| VLVVSRA | NOT MET |
| DCHEGRTNPRALKCFTEERG | MET |
| VADHVCFVCRHTLDP | NOT MET |
| FSITCADFICYSLVGGERTP | MET |
| VKSTSFPTWMISMIGQRTAH | NOT MET |
| MKRVGKFVGLGGRHVVHSRV | MET |
| NCLEIQFWRLSSRYVGKFVM | NOT MET |
| TNLYNDIGDRMFSSNWSTPV | MET |
| HYQYSFARTMVMLNMDWLML | MET |
| ACFWSVIVHTMKRTVQPQPK | MET |

###

# Experiment summary: amyloid nucleation score (Sup35N fusion, yeast selection) (log enrichment); library NNK2; higher = more nucleation; inactive = no reads after selection
Use Yes when the recorded amyloid nucleation score is no lower than -0.07; use No when it is lower.

| Substance | Group label |
| --- | --- |
| GSRCITQVLA | Yes |
| RHSCFICFNVLVICGLNLSL | Yes |
| FSRLTGN | No |
| LCRYTCSSLSVYLNNMILCG | Yes |
| LRPDYLERYFWLWHSTDKLF | No |
| VLGWCCLVLSILLKCEKVGL | No |
| RGGSTPYYNWSAGDGWKKDK | Yes |
| LTCSKSPIWWAIIFVGYFTN | Yes |
| GLVNSTPRKRKLFKGDAVHS | Yes |
| VRTWISDSCSVYWSSRLA | Yes |
| WVVRPPDTLVLDETRVGSGM | Yes |
| DINSQEVCSVTELGR | No |
| SAKSNGVQ | Yes |
| DVFWYDATTRYGGRCRGQIS | Yes |
| PFVVNVAGLKMSVRV | Yes |
| TIYPDMETHLV | No |
| VRIFWTVTLFDCRLLRWLSN | Yes |
| ISVYLSRSIFI | No |
| RLVYGLFAYKF | Yes |
| LHAHYWCRVSKEPCCWCKMG | Yes |
| YCVLMNS | No |
| LNNNGASNGFTTYSALNVG | No |
| LTYRVCHEVQGQRYCMAREH | Yes |
| LHRTLSRRTEVR | Yes |
| MDAYRCWAQMYRTYMLMCLV | Yes |
| SNLFGKLYVCFERDPRRKMM | Yes |
| NGIRQDNMGGVHVPTGSTII | No |
| HLWFEDAQFAIAKFKCGGKR | Yes |
| ILDSGVRYVFMRWLIGYCND | No |
| VVLGLDNPIHLIFLKDVNYC | No |
| IGFSPLCQYHYCAYGCY | Yes |
| WDIYQVGGTMSLDVFVKV | No |
| LSSHVCGGM | Yes |
| DTYDSCMSSVMISFR | Yes |
